# Experimental Details: viability loss with induced miR-34 in A549 – imaging, A549 dox-inducible miR-34, nuclei and caspase counts, primary screen (AID 1347080); note: test concentration not given here
# Condition Label: A549 miR-34 inducible, Hoechst nuclei count, 48 h; cell number ratio, induced over uninduced
The source made the active and inactive calls.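 Rule for the calls: active = compounds whose cell count with miR-34 switched on is under 0.7 times the count with it off; inactive = the rest.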 Where a SMILES comes first, the peptide text is derived from it.
Give one outcome, nothing more. List: 1 (yes) (active), 0 (no) (inactive)

## Task Identify the outcome logged in this assay for the molecule shown: `C=CC1=C(C(=O)O)N2C(=O)[C@@H](NC(=O)/C(=N\OCC(=O)O)c3csc(N)n3)[C@H]2SC1`
## Result 0 (no)

## Task Look up the recorded call for `CC(=O)N[C@@H](CC(C)C)C(=O)N[C@@H](CC(C)C)C(=O)N[C@H](C=O)CCCN=C(N)N` in this test.
## Result 0 (no)

## Task Which outcome did this test record for the molecule `CC(=O)/C=C1\C(=O)N(C)c2ccccc21` ?
## Result 0 (no)

## Task // return assay outcome for C#CCC(c1nc2cc(Cl)ccc2c(=O)n1Nc1ccccc1)N(CCCN)C(=O)c1cccc(Cl)c1F (stereo unspecified)
## Result 1 (yes)

## Task Short answer needed: outcome of this test for COC(=O)C(Cc1ccccc1)NC(=O)C(N)CC(=O)O (stereo not drawn) (H-Asp-Phe-OMe; configuration not given here) ?
## Result 0 (no)

## Task Can you look up the reported call for `O=C1Cc2c([nH]c3ccc(Br)cc23)-c2ncccc2N1` for me?
## Result 0 (no)
